# studyTarget: Androgen Receptor (Homo sapiens, UniProt P10275+P40337, T878A)
# Construct: Compounds have been evaluated in this assay in LNCaP and/or VCaP cells utilizing similar protocols; endogenous in cells; host or cells: LNCaP cells
# Sequence (P10275 whole entry T878A): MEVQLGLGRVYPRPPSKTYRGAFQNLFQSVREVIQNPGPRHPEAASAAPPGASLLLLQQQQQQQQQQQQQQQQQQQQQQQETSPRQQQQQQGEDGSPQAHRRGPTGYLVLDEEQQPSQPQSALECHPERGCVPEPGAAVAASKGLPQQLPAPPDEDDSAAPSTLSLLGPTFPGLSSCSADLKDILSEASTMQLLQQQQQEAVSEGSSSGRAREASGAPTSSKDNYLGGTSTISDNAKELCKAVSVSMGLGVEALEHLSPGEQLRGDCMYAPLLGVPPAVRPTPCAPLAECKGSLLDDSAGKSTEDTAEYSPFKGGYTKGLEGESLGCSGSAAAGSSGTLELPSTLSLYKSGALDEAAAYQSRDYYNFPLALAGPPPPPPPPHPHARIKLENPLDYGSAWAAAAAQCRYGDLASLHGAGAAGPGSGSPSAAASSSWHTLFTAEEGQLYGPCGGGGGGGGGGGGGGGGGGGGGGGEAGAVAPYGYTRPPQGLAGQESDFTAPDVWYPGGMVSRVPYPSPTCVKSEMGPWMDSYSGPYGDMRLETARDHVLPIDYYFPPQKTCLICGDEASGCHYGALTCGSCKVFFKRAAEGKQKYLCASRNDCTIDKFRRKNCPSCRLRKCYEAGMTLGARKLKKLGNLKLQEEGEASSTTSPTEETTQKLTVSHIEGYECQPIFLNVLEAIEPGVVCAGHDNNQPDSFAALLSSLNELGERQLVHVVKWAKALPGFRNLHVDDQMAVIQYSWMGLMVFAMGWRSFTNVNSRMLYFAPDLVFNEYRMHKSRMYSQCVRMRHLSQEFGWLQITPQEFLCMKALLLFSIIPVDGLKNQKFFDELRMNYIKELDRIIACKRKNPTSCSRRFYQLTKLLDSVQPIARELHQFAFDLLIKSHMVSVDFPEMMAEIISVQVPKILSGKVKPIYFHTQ
# Sequence (P40337 whole entry): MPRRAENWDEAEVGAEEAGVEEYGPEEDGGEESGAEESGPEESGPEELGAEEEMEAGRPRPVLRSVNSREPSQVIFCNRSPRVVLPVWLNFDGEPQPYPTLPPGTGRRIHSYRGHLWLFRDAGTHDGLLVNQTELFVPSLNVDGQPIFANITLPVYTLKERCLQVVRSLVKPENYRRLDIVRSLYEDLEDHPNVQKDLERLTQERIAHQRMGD
# Sequence (Q15369 whole entry partner): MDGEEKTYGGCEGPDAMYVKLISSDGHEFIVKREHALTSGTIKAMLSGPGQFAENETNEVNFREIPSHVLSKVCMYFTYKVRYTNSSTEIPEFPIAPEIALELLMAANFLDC
# Sequence (Q15370 whole entry partner): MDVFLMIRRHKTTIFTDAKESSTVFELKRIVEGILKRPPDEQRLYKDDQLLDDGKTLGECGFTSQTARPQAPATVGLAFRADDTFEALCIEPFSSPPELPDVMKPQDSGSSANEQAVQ
# experimentSummary: Androgen Receptor ELISA assay (PathScan AR ELISA) in LNCaP cells: AR degradation, Dmax and DC50
# Type: cell-based
# conditionDescription: concentration that caused 50% Androgen Receptor degradation
measurementType: DC50

Illustrative cases are given below, each with its answer.
# querySmiles, DC50
records = [
    ("Cc1ncsc1-c1ccc(CNC(=O)[C@@H]2C[C@@H](O)CN2C(=O)[C@@H](NC(=O)Cc2cccc(OCCCOCCOc3ccc(N4C(=S)N(c5ccc(C#N)c(C(F)(F)F)c5)C(=O)C4(C)C)cc3)c2)C(C)(C)C)cc1", "0.051 to 0.5 µM"),
    ("Cc1ncsc1-c1ccc(CNC(=O)[C@@H]2C[C@@H](O)CN2C(=O)[C@@H](NC(=O)C(C)(C)C)C(C)(C)C)c(OCCOCCOCCOc2ccc(N3C(=S)N(c4ccc(C#N)c(C(F)(F)F)c4)C(=O)C3(C)C)cc2)c1", "0.051 to 0.5 µM"),
    ("Cc1ncsc1-c1ccc(CNC(=O)[C@@H]2C[C@@H](O)CN2C(=O)[C@@H](NC(=O)CCOc2ccc(CCOc3ccc(N4C(=S)N(c5ccc(C#N)c(C(F)(F)F)c5)C(=O)C4(C)C)cc3)cc2)C(C)(C)C)cc1", "< 0.05 µM"),
]

According to the records, this compound Cc1ncsc1-c1ccc(CNC(=O)[C@@H]2C[C@@H](O)CN2C(=O)[C@@H](NC(=O)COCCOCCOc2ccc(-c3ccc(N4C(=S)N(c5ccc(C#N)c(C(F)(F)F)c5)C(=O)C4(C)C)cc3)cc2)C(C)(C)C)cc1 displays DC50 of < 0.05 µM

According to the records, this compound Cc1ncsc1-c1ccc(CNC(=O)[C@@H]2C[C@@H](O)CN2C(=O)[C@@H](NC(=O)CCCOCCOc2ccc(-c3ccc(N4C(=S)N(c5ccc(C#N)c(C(F)(F)F)c5)C(=O)C4(C)C)cc3)cc2)C(C)(C)C)cc1 displays DC50 of 0.051 to 0.5 µM

According to the records, this compound Cc1ncsc1-c1ccc(CNC(=O)[C@@H]2C[C@@H](O)CN2C(=O)[C@@H](NC(=O)c2ccc(OCCCOc3ccc(-c4ccc(N5C(=S)N(c6ccc(C#N)c(C(F)(F)F)c6)C(=O)C5(C)C)cc4)cc3)cc2)C(C)(C)C)cc1 displays DC50 of 0.051 to 0.5 µM

According to the records, this compound Cc1ncsc1-c1ccc(CNC(=O)[C@@H]2C[C@@H](O)CN2C(=O)[C@H](C(C)C)N2Cc3ccccc3C2=O)c(OCCOCCOCCCOCCOCCOc2ccc(N3C(=S)N(c4ccc(C#N)c(C(F)(F)F)c4)C(=O)C3(C)C)cc2)c1 displays DC50 of 0.051 to 0.5 µM

According to the records, this compound Cc1ncsc1-c1ccc(CNC(=O)[C@@H]2C[C@@H](O)CN2C(=O)[C@@H](NC(=O)COCCCCCN(C)C(=O)CCCc2ccc(N3C(=S)N(c4ccc(C#N)c(C(F)(F)F)c4)C(=O)C3(C)C)cc2)C(C)(C)C)cc1 displays DC50 of 0.051 to 0.5 µM

According to the records, this compound Cc1ncsc1-c1ccc(CNC(=O)[C@@H]2C[C@@H](O)CN2C(=O)[C@@H](NC(=O)c2ccc(OCCCCOc3ccc(N4C(=S)N(c5ccc(C#N)c(C(F)(F)F)c5)C(=O)C4(C)C)cc3)cc2)C(C)(C)C)cc1 displays DC50 of 0.051 to 0.5 µM
